All figures here come from the supplement of paper PMC4466140.

Reported SPOT peptide array binding signal intensity values are given for each entry in this list.
- tgt: AgFus1
- assay-details: SPOT peptide array binding signal intensity (averaged, normalized) (arbitrary units (background-subtracted, floor 0; scale differs between SH3 domains)); higher = stronger binding of the SH3 domain to the peptide
measure-name: SPOT peptide array binding signal intensity

[[record]]
binder = "EREKALPPIPFTTTL"
bound_type = "="
recorded_value = 5

[[record]]
binder = "KDKSRPPRPPPKPLH"
bound_type = "≤"
recorded_value = 0

[[record]]
binder = "RRASLFPRDPKRLRP"
bound_type = "="
recorded_value = 223

[[record]]
binder = "VKPRQLFPIPLNKVD"
bound_type = "="
recorded_value = 23

[[record]]
binder = "PKMLPIPSKPTLFDL"
bound_type = "="
recorded_value = 212

[[record]]
binder = "TSFKGRPKPPKTLKH"
bound_type = "="
recorded_value = 3

[[record]]
binder = "LPMNIQPDLPPRKIM"
bound_type = "="
recorded_value = 301

